Tested on: A375 melanoma cells
Assay: [3H]-thymidine incorporation (DNA biosynthesis), A375
Format: cell-based, human
Conditions: Homo sapiens, A-375, A375, 48 h; read-out: IC50, effect on DNA biosynthesis ([3H]-thymidine incorporation)
A collection of molecules and their measured IC50
Write the value in µM as a bare number.

A selection of reference data follows.
{"Molecule": "O=c1cc(-c2ccccc2)oc2ccc(O)c(O)c12 [Compound 15, 5,6-dihydroxyflavone]", "Value Units": "µM", "IC50": 32.4}
{"Molecule": "O=c1c(-c2ccc(O)cc2)coc2cc(O)cc(O)c12", "Value Units": "µM", "IC50": 28.1}
{"Molecule": "O=c1cc(-c2ccc(O)cc2)oc2cc(O)cc(O)c12", "Value Units": "µM", "IC50": 28.6}

For record `O=c1cc(-c2ccc(O)c(O)c2)oc2cc(O)cc(O)c12` the listed IC50 is 38.6

For record O=c1cc(-c2ccccc2)oc2c(O)c(O)ccc12 [Compound 16, 7,8-dihydroxyflavone] the listed IC50 is 29.7

====

Test system: A375 melanoma cells
Assay: MTT cell viability assay, A375
Conditions: Homo sapiens, A-375, 48 h, read-out: IC50, cytotoxic activity, MTT test, A375, 48 h
Measure: IC50

{"Compound": "O=C(O)C1OC(Oc2cc(O)c3c(=O)cc(-c4ccc(O)cc4)oc3c2)C(O)C(O)C1O (stereo not drawn) [Compound 4, apigenin 7-O-glucuronide]", "Measure": "IC50", "Value Measured": "> 200 µM"}
{"Compound": "O=C(O)C1OC(Oc2c(-c3ccc(O)c(O)c3)oc3cc(O)cc(O)c3c2=O)C(O)C(O)C1O (stereo not drawn) [Compound 27, quercetin 3-O-glucuronide]", "Measure": "IC50", "Value Measured": "> 200 µM"}
{"Compound": "O=c1cc(-c2ccc(O)c(O)c2)oc2cc(O)cc(O)c12", "Measure": "IC50", "Value Measured": "38.2 µM"}

Item: COc1ccc(C2CC(=O)c3c(O)cc(OC4OC(COC5OC(C)C(O)C(O)C5O)C(O)C(O)C4O)cc3O2)cc1O (stereo not drawn) [Compound 34, hesperetin 7-O-rutinoside] | System: A375 melanoma cells | IC50: > 200 µM

Item: COc1ccc(C2CC(=O)c3c(O)cc(OC4OC(CO)C(O)C(O)C4OC4OC(C)C(O)C(O)C4O)cc3O2)cc1O (stereo not drawn) [Compound 35, hesperetin 7-O-neohesperidoside] | System: A375 melanoma cells | IC50: > 200 µM

Item: O=C(O)C1OC(Oc2c(-c3ccc(O)cc3)oc3cc(O)cc(O)c3c2=O)C(O)C(O)C1O (stereo not drawn) [Compound 21, kaempferol 3-O-glucuronide] | System: A375 melanoma cells | IC50: > 200 µM

Item: O=c1cc(-c2ccc(O)cc2)oc2c([C@@H]3O[C@H](CO)[C@@H](O)[C@H](O)[C@H]3O)c(O)cc(O)c12 [Compound 2, apigenin 8-C-glucoside] | System: A375 melanoma cells | IC50: > 200 µM

Item: `O=c1c(O)c(-c2ccc(O)c(O)c2)oc2cc(O)cc(O)c12` | System: A375 melanoma cells | IC50: > 200 µM

Item: `O=c1c(-c2ccc(O)cc2)coc2cc(O)ccc12` | System: A375 melanoma cells | IC50: > 200 µM

Item: CC1OC(OCC2OC(Oc3c(-c4ccc(O)c(O)c4)oc4cc(OC5OC(CO)C(O)C(O)C5O)cc(O)c4c3=O)C(O)C(O)C2O)C(O)C(O)C1O (stereo not drawn) [Compound 29, quercetin 3-O-rutinoside-7-O-glucoside] | System: A375 melanoma cells | IC50: > 200 µM

Item: O=c1cc(-c2ccccc2)oc2c(O)c(O)ccc12 [Compound 16, 7,8-dihydroxyflavone] | System: A375 melanoma cells | IC50: 33.2 µM

Item: `COc1ccc(-c2oc3c(CC=C(C)C)c(O[C@@H]4O[C@H](CO)[C@@H](O)[C@H](O)[C@H]4O)cc(O)c3c(=O)c2O[C@@H]2O[C@@H](C)[C@H](O)[C@@H](O)[C@H]2O)cc1` | System: A375 melanoma cells | IC50: > 200 µM

====

Tested on: A375 melanoma cells
Assay: Neutral red uptake (NRU) assay, A375
Conditions: read-out: IC50, cytotoxic activity, NRU assay; A375, 72 h
pIC50: −log10 of the molar value.
Measure: pIC50

A selection of reference data follows.
{"Molecule": "N.N.[Cl][Pt][Cl] [cPt, cisplatin, reference compound]", "pIC50": 5.00}
{"Molecule": "CC(=O)Oc1ccc(-c2cc(=O)c3c(O)cc(O)c([C@@H]4OC[C@@H](O)[C@H](O)[C@H]4O[C@@H]4O[C@H](CO)[C@@H](O)[C@H](O)[C@H]4O)c3o2)cc1O", "pIC50": "< 3.70"}

Please examine the following record next.
For record `COc1ccc(-c2cc(=O)c3c(O)cc(O)c([C@@H]4OC[C@@H](O)[C@H](O)[C@H]4O[C@@H]4O[C@H](CO)[C@@H](O)[C@H](O)[C@H]4O)c3o2)cc1O` the listed pIC50 is < 3.70

====

A collection of compounds and their measured IC50
Test system: C32 melanoma cells
Experiment: [3H]-thymidine incorporation (DNA biosynthesis), C32
Assay type: cell-based, human
Settings: Homo sapiens, C32, C32, 48 h; read-out: IC50, effect on DNA biosynthesis ([3H]-thymidine incorporation)

For record O=c1cc(-c2ccccc2)oc2c(O)c(O)ccc12 [Compound 16, 7,8-dihydroxyflavone] the listed IC50 is 18.4 µM

For record `O=c1cc(-c2ccc(O)c(O)c2)oc2cc(O)cc(O)c12` the listed IC50 is 30.9 µM

For record O=c1cc(-c2ccccc2)oc2ccc(O)c(O)c12 [Compound 15, 5,6-dihydroxyflavone] the listed IC50 is 20.1 µM

For record `O=c1cc(-c2ccc(O)cc2)oc2cc(O)cc(O)c12` the listed IC50 is 27.1 µM

For record `O=c1c(-c2ccc(O)cc2)coc2cc(O)cc(O)c12` the listed IC50 is 18.5 µM

====

System: A375 melanoma cells
Test: MTT cell viability assay, A375
Settings: Homo sapiens, A-375, 48 h, read-out: IC50, cytotoxic activity, MTT test, A375, 48 h
Measure: IC50 (µM)
Write the value in µM as a bare number.

A selection of reference data follows.
{"Compound": "O=c1c(O[C@@H]2O[C@H](CO)[C@@H](O)[C@H](O)[C@H]2O)c(-c2ccc(O)cc2)oc2cc(O)cc(O)c12 [Compound 20, kaempferol 3-O-glucoside]", "Value Units": "µM", "IC50": 46.9}
{"Compound": "C[C@@H]1O[C@@H](OC[C@H]2O[C@@H](Oc3c(-c4ccc(O)c(O)c4)oc4cc(O)cc(O)c4c3=O)[C@H](O)[C@@H](O)[C@@H]2O)[C@H](O)[C@H](O)[C@H]1O [Compound 28, quercetin 3-O-rutinoside]", "Value Units": "µM", "IC50": 57}
{"Compound": "O=c1cc(-c2ccc(O)cc2)oc2cc(O)cc(O)c12 [Compound 1, apigenin]", "Value Units": "µM", "IC50": 31.9}
{"Compound": "O=c1cc(-c2ccccc2)oc2ccc(O)c(O)c12 [Compound 15, 5,6-dihydroxyflavone]", "Value Units": "µM", "IC50": 36.4}
{"Compound": "COc1cc(O)c2c(=O)c(O)c(-c3ccc(O)c(O)c3)oc2c1 [Compound 25, 7-methoxyquercetin]", "Value Units": "µM", "IC50": 42.1}

Please examine the following record next.
Item: O=c1cc(-c2ccccc2)oc2cc(O)cc(O)c12 [Compound 14, chrysin] | System: A375 melanoma cells | IC50: 66.4

====

Test system: A375 melanoma cells
Experiment: MTT cell viability assay, A375;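 further: Read-out is formazan absorbance at 570 nm after 2 h with MTT, with compounds in at most 0.1% v/v DMSO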
Conditions: Homo sapiens, A-375, 72 h, read-out: IC50, cytotoxic activity, MTT test
Measure: IC50 (µM)
Write the value in µM as a bare number.

For record `COc1cc(-c2oc3cc(O)cc(O)c3c(=O)c2O)ccc1O` the listed IC50 is 50.8

====

System: human skin fibroblasts (CCD25Sk)
Experiment: [3H]-thymidine incorporation (DNA biosynthesis), normal cells
Format: cell-based
Conditions: 24 h, read-out: IC50, effect on DNA biosynthesis ([3H]-thymidine incorporation)
Measure: pIC50
In simple prose, pIC50 is minus the logarithm base ten of a concentration in moles per litre.

Item: N.N.[Cl][Pt][Cl] [cPt, cisplatin, reference compound] | System: human skin fibroblasts (CCD25Sk) | pIC50: 5.15

====

Experiment: Neutral red uptake (NRU) assay, normal cells
Settings: human, human skin fibroblasts (CCD25Sk)
A collection of compounds and their measured IC50 at 72 h

A selection of reference data follows.
{"Compound": "O=c1cc(-c2ccc(O)c(O)c2)oc2cc(OC3OC(CO)C(O)C(O)C3O)cc(O)c12 (stereo not shown) [Compound 7, luteolin 7-O-glucoside]", "Value Measured": "100 to 200 µM"}
{"Compound": "COc1ccc([C@@H]2CC(=O)c3c(O)cc(O)cc3O2)cc1O [Compound 33, hesperetin]", "Value Measured": "100 to 200 µM"}
{"Compound": "O=c1cc(-c2ccccc2)oc2ccc(O)c(O)c12 [Compound 15, 5,6-dihydroxyflavone]", "Value Measured": "100 to 200 µM"}

Please examine the following record next.
For record O=c1cc(-c2ccc(O)cc2)oc2cc(OC3OC(CO)C(O)C(O)C3O)cc(O)c12 (stereo not shown) [Compound 3, apigenin 7-O-glucoside] the listed IC50 at 72 h is > 200 µM

Taken from paper PMC10854695.
